The values you see were collected from patent US10308617B2.

Assay: Oral Bioavailability (PO) and Pharmacokinetics Assay
Type: in vivo, Sprague-Dawley rats
Details: male, Sprague-Dawley, plasma; rat, IP 3 mg/kg
endpoint label: AUC(0-t)
I'd appreciate it if you included the unit after the number.

Ask: Give the measured AUC(0-t) of Cc1ccccc1C(=O)Nc1nc(NC(=O)c2ccccc2C)n(-c2ccccc2)n1 .
Result: 9590 ng·h/mL

----------
Molecular target: Parkin ligase (Homo sapiens)
Sequence (O60260 whole entry): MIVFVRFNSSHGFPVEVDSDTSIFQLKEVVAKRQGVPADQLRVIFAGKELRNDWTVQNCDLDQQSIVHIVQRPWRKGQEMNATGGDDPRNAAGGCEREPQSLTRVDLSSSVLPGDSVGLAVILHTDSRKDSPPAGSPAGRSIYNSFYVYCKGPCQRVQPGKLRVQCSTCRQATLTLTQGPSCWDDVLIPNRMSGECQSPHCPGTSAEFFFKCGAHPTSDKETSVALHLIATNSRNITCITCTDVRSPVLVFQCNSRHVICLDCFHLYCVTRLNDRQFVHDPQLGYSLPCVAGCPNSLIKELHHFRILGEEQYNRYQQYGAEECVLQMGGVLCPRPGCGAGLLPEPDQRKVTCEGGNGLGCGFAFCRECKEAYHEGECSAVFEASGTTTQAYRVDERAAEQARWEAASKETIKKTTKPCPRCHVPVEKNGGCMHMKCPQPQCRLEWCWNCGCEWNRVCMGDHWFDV
Assay: Activity-Based Probe Assay using an Ubiquitin vinyl sulfone probe (TR-FRET)
Type: biochemical
Conditions: Parkin activation, HA-Ub-VS probe, heat activated Parkin; read-out: Probe Assay EC50 (μM) [Example 2]
endpoint label: EC50

>>> endpoint_value("c1ccc(-n2nc(-c3ccccn3)nc2Nc2ncnc3ccccc23)cc1")
"22 µM"

Ask: Give the measured EC50 of Cc1ccccc1C(=O)Nc1nc(NC(=O)c2ccccc2C)n(C(C)(C)C)n1 .
Result: > 100 µM

Ask: Give the measured EC50 of C=CC(=O)Nc1nc(NC(=O)c2ccccc2)nn1-c1ccccc1 .
Result: > 100 µM
